# test: total protein half-life in vivo (active degradation + dilution); higher = more stable protein
# conditions: wild type E. coli NCM3722; growth: N-lim chemostat; doubling time 12 h

| sequence.string | total protein half-life in vivo (h) |
| --- | --- |
| MQKRAIYPGTFDPITNGHIDIVTRATQMFDHVILAIAASPSKKPMFTLEERVALAQQATAHLGNVEVVGFSDLMANFARNQHATVLIRGLRAVADFEYEMQLAHMNRHLMPELESVFLMPSKEWSFISSSLVKEVARHQGDVTHFLPENVHQALMAKLA [P0A6I6] | 7.33 |
| MIYLRKANERGHANHGWLDSWHTFSFANYYDPNFMGFSALRVINDDVIEAGQGFGTHPHKDMEILTYVLEGTVEHQDSMGNKEQVPAGEFQIMSAGTGIRHSEYNPSSTERLHLYQIWIMPEENGITPRYEQRRFDAVQGKQLVLSPDARDGSLKVHQDMELYRWALLKDEQSVHQIAAERRVWIQVVKGNVTINGVKASTSDGLAIWDEQAISIHADSDSEVLLFDLPPV | 7.3 |
| MSEMIYGIHAVQALLERAPERFQEVFILKGREDKRLLPLIHALESQGVVIQLANRQYLDEKSDGAVHQGIIARVKPGRQYQENDLPDLIASLDQPFLLILDGVTDPHNLGACLRSADAAGVHAVIVPKDRSAQLNATAKKVACGAAESVPLIRVTNLARTMRMLQEENIWIVGTAGEADHTLYQSKMTGRLALVMGAEGEGMRRLTREHCDELISIPMAGSVSSLNVSVATGICLFEAVRQRS | 9.48 |

---

The reader will find reported total protein half-life in vivo values listed item by item below.
# test: total protein half-life in vivo (active degradation + dilution); higher = more stable protein
# conditions: E. coli NCM3722 delta-clpP delta-lon delta-hslV; growth: N-lim chemostat; doubling time 6 h
result.type: total protein half-life in vivo

| sequence.string | value.observed |
| --- | --- |
| MSDTNYAVIYDLHSHTTASDGCLTPEALVHRAVEMRVGTLAITDHDTTAAIAPAREEISRSGLALNLIPGVEISTVWENHEIHIVGLNIDITHPLMCEFLAQQTERRNQRAQLIAERLEKAQIPGALEGAQRLAQGGAVTRGHFARFLVECGKASSMADVFKKYLARGKTGYVPPQWCTIEQAIDVIHHSGGKAVLAHPGRYNLSAKWLKRLVAHFAEHHGDAMEVAQCQQSPNERTQLAALARQHHLWASQGSDFHQPCPWIELGRKLWLPAGVEGVWQLWEQPQNTTEREL | 4.2 h |
| MMKRNILAVIVPALLVAGTANAAEIYNKDGNKVDLYGKAVGLHYFSKGNGENSYGGNGDMTYARLGFKGETQINSDLTGYGQWEYNFQGNNSEGADAQTGNKTRLAFAGLKYADVGSFDYGRNYGVVYDALGYTDMLPEFGGDTAYSDDFFVGRVGGVATYRNSNFFGLVDGLNFAVQYLGKNERDTARRSNGDGVGGSISYEYEGFGIVGAYGAADRTNLQEAQPLGNGKKAEQWATGLKYDANNIYLAANYGETRNATPITNKFTNTSGFANKTQDVLLVAQYQFDFGLRPSIAYTKSKAKDVEGIGDVDLVNYFEVGATYYFNKNMSTYVDYIINQIDSDNKLGVGSDDTVAVGIVYQF | 5.54 h |
